biological target: Mas-related G-protein coupled receptor member X2 (Homo sapiens, UniProt Q96LB1); test: Intracellular Calcium Mobilization Assay; conditions: pH 7.4; 30 °C
Sequence (Q96LB1 whole entry): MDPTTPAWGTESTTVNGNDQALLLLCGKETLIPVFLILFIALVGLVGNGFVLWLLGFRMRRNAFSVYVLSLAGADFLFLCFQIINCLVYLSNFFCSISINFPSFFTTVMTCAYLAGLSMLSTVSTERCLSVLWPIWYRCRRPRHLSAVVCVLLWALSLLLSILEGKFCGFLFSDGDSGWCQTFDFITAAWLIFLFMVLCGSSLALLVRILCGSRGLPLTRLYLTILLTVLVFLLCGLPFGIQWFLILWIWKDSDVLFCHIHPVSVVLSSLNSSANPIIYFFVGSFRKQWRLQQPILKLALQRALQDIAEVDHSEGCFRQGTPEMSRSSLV
pEC50: −log10 of the molar value.
Quantity Measured: pEC50

Sample Smiles	Study Target	Recorded Number
CC(C)C[C@H](NC(=O)[C@H](Cc1ccccc1)NC(=O)CNC(=O)CNC(=O)[C@@H](N)Cc1ccc(O)cc1)C(=O)N[C@@H](CCCNC(=N)N)C(=O)N[C@@H](CCCNC(=N)N)C(=O)N[C@@H](CCC(N)=O)C(=O)N[C@@H](Cc1ccccc1)C(=O)N[C@@H](CCCCN)C(=O)N[C@H](C(=O)N[C@H](C(=O)N[C@H](C(=O)O)[C@H](C)O)C(C)C)C(C)C	Mas-related G-protein coupled receptor member X2 (Homo sapiens, UniProt Q96LB1)	5.19
CN1CC[C@@]23CCCC[C@H]2[C@@H]1Cc1ccc(O)cc13	Mas-related G-protein coupled receptor member X2 (Homo sapiens, UniProt Q96LB1)	4.89
CC[C@H](C)[C@H](NC(=O)[C@H](CCCNC(=N)N)NC(=O)[C@H](CCCNC(=N)N)NC(=O)[C@H](CC(C)C)NC(=O)[C@H](Cc1ccccc1)NC(=O)CNC(=O)CNC(=O)[C@@H](N)Cc1ccc(O)cc1)C(=O)N[C@@H](CCCNC(=N)N)C(=O)N1CCC[C@H]1C(=O)N[C@@H](CCCCN)C(=O)N[C@@H](CC(C)C)C(=O)N[C@@H](CCCCN)C(=O)N[C@@H](Cc1c[nH]c2ccccc12)C(=O)N[C@@H](CC(=O)O)C(=O)N[C@@H](CC(N)=O)C(=O)N[C@@H](CCC(N)=O)C(=O)O	Mas-related G-protein coupled receptor member X2 (Homo sapiens, UniProt Q96LB1)	5.64
